Biological target: T1, recombinant human FGFR3 IIIb Fc fusion protein (human, UniProt P22607-2 23-377, limits assumed)
T1 construct: Bought reagent; the IIIb splice isoform is meant; also called rhFGFR3 IIIb Fc; hFGFR3 IIIb; not shown: Fc fragment (removable by Factor Xa, detected with anti-human IgG)
T1 sequence (looked up): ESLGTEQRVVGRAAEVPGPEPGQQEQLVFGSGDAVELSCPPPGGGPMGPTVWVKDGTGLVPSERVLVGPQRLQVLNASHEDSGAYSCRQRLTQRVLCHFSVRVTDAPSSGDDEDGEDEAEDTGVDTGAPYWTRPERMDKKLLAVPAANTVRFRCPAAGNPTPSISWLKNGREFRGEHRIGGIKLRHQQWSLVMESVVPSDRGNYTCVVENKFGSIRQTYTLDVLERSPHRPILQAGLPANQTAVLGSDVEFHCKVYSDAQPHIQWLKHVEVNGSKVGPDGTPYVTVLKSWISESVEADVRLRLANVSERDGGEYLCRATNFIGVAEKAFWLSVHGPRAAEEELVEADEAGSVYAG
Experiment: ECL competition assay: inhibition of rhFGFR3 IIIb Fc binding to coated FGF1 (competitor FGF1)
readout: pIC50
API: returns pIC50 as number; meaning -log10 of concentration in mol/L.

Challenge: Look at this binder and give its reported pIC50. anti-FGFR3 monoclonal antibody 4E7 (antibody, mouse IgG1, kappa, V domains shown, Murine IgG1/kappa from hybridoma; also called 4E7 IgG1; 4E7 (7D12)) VH: EIQLQQSGPELVKPGASVKVSCKASGYAFTSYNMYWVKQSHGKSLEWIGYIDPYNGGTRYNQKFKGKATLTVDKSSSTAYMHLNSLTSEDSAVYYCAREGGNYEAWFAYWGQGTLVTVSA VL: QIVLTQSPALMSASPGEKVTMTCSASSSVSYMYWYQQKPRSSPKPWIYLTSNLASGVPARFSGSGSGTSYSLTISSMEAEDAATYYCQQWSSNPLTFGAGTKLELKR
Response given: 7.73

Challenge: Look at this binder and give its reported pIC50. 4E7 Fab (Fab, V domains shown, not shown: a dimerising Fc or GST, Fab fragment of murine 4E7; preparation not described; also called anti-FGFR3 Fab fragment 4E7) VH: EIQLQQSGPELVKPGASVKVSCKASGYAFTSYNMYWVKQSHGKSLEWIGYIDPYNGGTRYNQKFKGKATLTVDKSSSTAYMHLNSLTSEDSAVYYCAREGGNYEAWFAYWGQGTLVTVSA VL: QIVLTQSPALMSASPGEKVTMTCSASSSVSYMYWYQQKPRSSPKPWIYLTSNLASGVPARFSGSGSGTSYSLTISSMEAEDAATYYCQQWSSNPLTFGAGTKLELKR
Response given: 7.16

Challenge: Look at this binder and give its reported pIC50. 2G4 Fab (Fab, V domains shown, not shown: a dimerising Fc or GST, Fab fragment of murine 2G4; preparation not described; also called anti-FGFR3 Fab fragment 2G4) VH: EIQLQQSGPELVKPGASVKVSCKASGYAFTSYNMYWVKQSHGKSLEWIGYIDPYNGGTRDNQKFKGKATLTVDKSSSTAYMHLNSLTSEDSAVYYCAREGGNYEAWFAYWGQGTLVTVSA VL: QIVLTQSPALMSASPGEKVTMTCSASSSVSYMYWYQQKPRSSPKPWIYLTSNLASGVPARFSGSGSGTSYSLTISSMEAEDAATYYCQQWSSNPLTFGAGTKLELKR
Response given: 7.19

Challenge: Look at this binder and give its reported pIC50. anti-FGFR3 monoclonal antibody 27H2 (antibody, mouse IgG1, kappa, V domains shown, Murine IgG1/kappa from hybridoma; also called 27H2 IgG1; murine antibody 27H2) VH: EIQLQQSGPELVKPGASVKVSCKASGYAFTSYNMYWVKQSHGKSLEWIGYIDPYNGGTRYNQKFKGKATMTVDKSSSTAYMHLNSLTSEDSAVYYCAREGGNYEAWFAYWGQGTLVTVSA VL: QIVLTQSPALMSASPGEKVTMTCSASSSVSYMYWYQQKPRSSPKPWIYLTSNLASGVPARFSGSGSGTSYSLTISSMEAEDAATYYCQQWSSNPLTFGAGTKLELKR
Response given: 7.81
